# Test system: MCF7
# methodSummary: Cytotoxicity against human MCF7 cells assessed as cell growth at 10 uM
# Format: functional
# assayContext: read-out: Activity
readoutKind: growth at 10 µM

Return reported growth at 10 µM; argument: COc1cc(C)cc(-c2nn(CC#N)cc2-c2ccc(-c3cccc(C(C)=O)c3)nc2)c1
8.74%

# growth at 10 µM lookup, item COc1cc(C)cc(-c2nn(CC#N)cc2-c2ccnc(-c3ccc(Oc4ccccc4)cc3)c2)c1
72.1%

State the recorded growth at 10 µM for this entry: COc1cc(C)cc(-c2nn(CC#N)cc2-c2ccnc(-c3cccc(NC(C)=O)c3)c2)c1
85%

Name the recorded growth at 10 µM for COc1cc(C)cc(-c2nn(CC#N)cc2-c2ccnc(-c3ccc(C#N)cc3)c2)c1 .
43.3%

What does the data say about its growth at 10 µM? Entry: COc1cc(C)cc(-c2nn(CC#N)cc2-c2ccnc(-c3ccc(N(C)C)cc3)c2)c1
10.1%

Item COc1cc(C)cc(-c2c(-c3ccnc(-c4ccc(C(C)=O)cc4)c3)cnn2CC#N)c1 has what recorded growth at 10 µM?
21.9%

Given the molecule Cc1cc(O)cc(-c2nn(CC#N)cc2-c2ccnc(-c3ccccc3)c2)c1 , what is its reported growth at 10 µM?
53.8%

Can you look up the measured growth at 10 µM of Cc1cc(O)cc(-c2nn(CC#N)cc2-c2ccnc(-c3ccc(C#N)cc3)c2)c1 for me?
34.4%

growth at 10 µM lookup needed for COc1cc(C)cc(-c2nn(CC#N)cc2-c2ccnc(-c3ccc(C(C)=O)cc3)c2)c1 , thanks.
27.6%

Find the recorded growth at 10 µM belonging to Cc1cc(O)cc(-c2nn(CC#N)cc2-c2ccnc(-c3ccc(N(C)C)cc3)c2)c1 and report it.
14.9%

Which value of growth at 10 µM has been reported for COc1cc(C)cc(-c2c(-c3ccnc(-c4ccc(N(C)C)cc4)c3)cnn2CC#N)c1 in the records?
2.45%

If you can, please state the reported growth at 10 µM value of Cc1cc(O)cc(-c2nn(CC#N)cc2-c2ccnc(-c3ccc(Oc4ccccc4)cc3)c2)c1 .
18.4%

// returns reported growth at 10 µM for input COc1cc(C)cc(-c2c(-c3ccnc(-c4cccc(NC(C)=O)c4)c3)cnn2CC#N)c1
85%

###

# System: DU-145
# methodSummary: Cytotoxicity against human DU145 cells assessed as cell growth at 0.01 uM after 48 hrs by sulforhodamine B assay
# Format: functional
# assayContext: DU-145, 48 h, read-out: Activity
readoutKind: growth at 0.01 µM (%)
Please respond with the number in % and leave the unit unwritten.

Reported growth at 0.01 µM, compound COc1cc(C)cc(-c2nn(CC#N)cc2-c2ccnc(-c3ccc(N(C)C)cc3)c2)c1 : ____
99

Requested read-out: growth at 0.01 µM. Entry: COc1cc(C)cc(-c2c(-c3ccnc(-c4ccc(C(C)=O)cc4)c3)cnn2CC#N)c1
100

Recorded growth at 0.01 µM for COc1cc(C)cc(-c2nn(CC#N)cc2-c2ccc(-c3cccc(C(C)=O)c3)nc2)c1 , please?
98

Given Cc1cc(O)cc(-c2nn(CC#N)cc2-c2ccnc(-c3ccc(N(C)C)cc3)c2)c1 , state its recorded growth at 0.01 µM.
97

Dear colleague, I am looking for the recorded growth at 0.01 µM of the following compound: Cc1cc(O)cc(-c2nn(CC#N)cc2-c2ccnc(-c3ccc(Oc4ccccc4)cc3)c2)c1
96

###

Give measured growth at 10 µM for each item. Keep answers brief.
# Test system: HCT-15
# methodSummary: Cytotoxicity against human HCT15 cells assessed as cell growth at 10 uM
# Assay type: functional
# assayContext: read-out: Activity
Your answer is read as %, so omit the unit and give the number.

Give recorded growth at 10 µM with HCT-15 for the following compound: COc1cc(C)cc(-c2nn(CC#N)cc2-c2ccnc(-c3ccc(C#N)cc3)c2)c1
75.9

Requested read-out growth at 10 µM, target or system HCT-15, entry COc1cc(C)cc(-c2nn(CC#N)cc2-c2ccnc(-c3ccc(C(C)=O)cc3)c2)c1
68.7

State its growth at 10 µM on HCT-15: COc1cc(C)cc(-c2nn(CC#N)cc2-c2ccnc(-c3ccc(Oc4ccccc4)cc3)c2)c1
71

Missing value: growth at 10 µM, HCT-15, entry Cc1cc(O)cc(-c2nn(CC#N)cc2-c2ccnc(-c3ccc(Oc4ccccc4)cc3)c2)c1 . Fill in?
4.26

Return growth at 10 µM measured with HCT-15 given this compound: Cc1cc(O)cc(-c2nn(CC#N)cc2-c2ccnc(-c3ccc(C#N)cc3)c2)c1
70.4

Fill in the recorded growth at 10 µM for this compound, with HCT-15 as test system: COc1cc(C)cc(-c2nn(CC#N)cc2-c2ccc(-c3cccc(C(C)=O)c3)nc2)c1
23.4

Missing value: growth at 10 µM, HCT-15, entry COc1cc(C)cc(-c2c(-c3ccnc(-c4cccc(NC(C)=O)c4)c3)cnn2CC#N)c1 . Fill in?
94.5

What is its growth at 10 µM for HCT-15? Entry: COc1cc(C)cc(-c2nn(CC#N)cc2-c2ccnc(-c3cccc(NC(C)=O)c3)c2)c1
94.5

###

# Tested on: RXF 393
# methodSummary: Cytotoxicity against human RXF393 cells assessed as cell growth at 0.01 uM after 48 hrs by sulforhodamine B assay
# Type: functional
# assayContext: RXF 393, 48 h, read-out: Activity
Binary classification by growth at 0.01 µM, with 90% as an inclusive lower bound for Met; all other cases are Not met.

Would you say COc1cc(C)cc(-c2c(-c3ccnc(-c4ccc(C(C)=O)cc4)c3)cnn2CC#N)c1 shows growth at 0.01 µM at minimum 90%?
Met

Can Cc1cc(O)cc(-c2nn(CC#N)cc2-c2ccnc(-c3ccc(N(C)C)cc3)c2)c1 be said to have growth at 0.01 µM at or above 90%?
Met

Confirm if growth at 0.01 µM reported for the compound COc1cc(C)cc(-c2nn(CC#N)cc2-c2ccnc(-c3ccc(N(C)C)cc3)c2)c1 is 90% or above.
Met

In plain terms: is recorded growth at 0.01 µM at least 90% for COc1cc(C)cc(-c2c(-c3ccnc(-c4ccc(N(C)C)cc4)c3)cnn2CC#N)c1 ?
Not met

###

# Test system: NCI-H226
# methodSummary: Cytotoxicity against human NCI-H226 cells assessed as cell growth at 1 uM after 48 hrs by sulforhodamine B assay
# Type: functional
# assayContext: NCI-H226, 48 h, read-out: Activity
readoutKind: growth at 1 µM (%)
Please reply with the bare figure in % and do not write the unit itself.

Which growth at 1 µM is listed for Cc1cc(O)cc(-c2nn(CC#N)cc2-c2ccnc(-c3ccc(N(C)C)cc3)c2)c1 ?
19

Look up growth at 1 µM: COc1cc(C)cc(-c2c(-c3ccnc(-c4ccc(C(C)=O)cc4)c3)cnn2CC#N)c1
34

For the compound shown here, COc1cc(C)cc(-c2nn(CC#N)cc2-c2ccc(-c3cccc(C(C)=O)c3)nc2)c1 , give the reported growth at 1 µM.
29

If you can, please state the reported growth at 1 µM value of COc1cc(C)cc(-c2nn(CC#N)cc2-c2ccnc(-c3ccc(N(C)C)cc3)c2)c1 .
3

Query (compound): Cc1cc(O)cc(-c2nn(CC#N)cc2-c2ccnc(-c3ccc(Oc4ccccc4)cc3)c2)c1 ; field requested: growth at 1 µM
6

###

# System: ACHN
# methodSummary: Cytotoxicity against human ACHN cells assessed as cell growth at 10 uM
# Assay type: functional
# assayContext: read-out: Activity
Returns true if the recorded growth at 10 µM is greater than or equal to 70%, and false otherwise.

Textbook exercise: given the entry COc1cc(C)cc(-c2nn(CC#N)cc2-c2ccnc(-c3ccc(N(C)C)cc3)c2)c1 , state whether its growth at 10 µM is greater than or equal to 70%.
false

Quick check, growth at 10 µM >= 70%? COc1cc(C)cc(-c2c(-c3ccnc(-c4ccc(N(C)C)cc4)c3)cnn2CC#N)c1
false

In plain terms: is recorded growth at 10 µM at least 70% for Cc1cc(O)cc(-c2nn(CC#N)cc2-c2ccnc(-c3ccc(C#N)cc3)c2)c1 ?
false

growth at 10 µM >= 70% for COc1cc(C)cc(-c2nn(CC#N)cc2-c2ccnc(-c3ccc(Oc4ccccc4)cc3)c2)c1 ?
true

Evaluate COc1cc(C)cc(-c2nn(CC#N)cc2-c2ccnc(-c3ccc(C(C)=O)cc3)c2)c1 : growth at 10 µM at minimum 70%?
true

Confirm if growth at 10 µM reported for the compound COc1cc(C)cc(-c2nn(CC#N)cc2-c2ccc(-c3cccc(C(C)=O)c3)nc2)c1 is 70% or above.
false

Please indicate if the recorded growth at 10 µM for Cc1cc(O)cc(-c2nn(CC#N)cc2-c2ccnc(-c3ccccc3)c2)c1 meets or exceeds 70%.
true

Is growth at 10 µM at least 70%? Consider COc1cc(C)cc(-c2nn(CC#N)cc2-c2ccnc(-c3ccc(C#N)cc3)c2)c1
true

Quick check: does COc1cc(C)cc(-c2nn(CC#N)cc2-c2ccnc(-c3cccc(NC(C)=O)c3)c2)c1 have growth at 10 µM greater than or equal to 70%?
true

Confirm if growth at 10 µM reported for the compound Cc1cc(O)cc(-c2nn(CC#N)cc2-c2ccnc(-c3ccc(Oc4ccccc4)cc3)c2)c1 is 70% or above.
false

Please indicate if the recorded growth at 10 µM for COc1cc(C)cc(-c2c(-c3ccnc(-c4cccc(NC(C)=O)c4)c3)cnn2CC#N)c1 meets or exceeds 70%.
true

hey, is growth at 10 µM for this one >= 70%? Cc1cc(O)cc(-c2nn(CC#N)cc2-c2ccnc(-c3ccc(N(C)C)cc3)c2)c1
false
